Data credit: patent US20250230147A1

Molecular target: Cbl-b (Homo sapiens (Human))
Sequence (Q13191 40-426): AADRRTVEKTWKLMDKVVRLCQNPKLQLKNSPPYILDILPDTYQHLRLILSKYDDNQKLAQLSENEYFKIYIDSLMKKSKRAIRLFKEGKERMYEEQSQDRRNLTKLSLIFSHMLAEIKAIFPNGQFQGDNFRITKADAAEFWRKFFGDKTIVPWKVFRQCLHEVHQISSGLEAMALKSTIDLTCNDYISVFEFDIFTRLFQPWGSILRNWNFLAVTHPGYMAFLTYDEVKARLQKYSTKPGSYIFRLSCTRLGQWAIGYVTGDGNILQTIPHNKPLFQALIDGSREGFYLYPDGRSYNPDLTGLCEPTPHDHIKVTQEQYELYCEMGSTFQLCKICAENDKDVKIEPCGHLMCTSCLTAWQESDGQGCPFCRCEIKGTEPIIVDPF
Assay: Cbl-b LCK Ub TR-FRET assay (Cbl-b Lck HTRF)
Assay type: biochemical
pIC50: −log10 of the molar value.
PROPERTY_LABEL: pIC50

Answered examples (5):
I'd like to know its pIC50. The molecule in question is CCCNCc1cc2c(c(C(F)(F)F)c1)CN(c1cc(NCC)cc(C3(Cc4nncn4C)CCC3)c1)C2=O [Compound 458]
7.64

Thanks! And Cn1cnnc1[C@H](F)C1(c2cccc(N3Cc4c(cc(CN5CC6(CCO6)C5)cc4C(F)(F)F)C3=O)c2)COC1 [Compound 139] ?
6.64

And what about the molecule COc1cccc2c1CN(c1cccc(C3([C@@H](F)c4nncn4C)COC3)c1)C2=O [Compound 206] ?
5.82

And for Cn1cnnc1CC1(c2cccc(N3Cc4c(cc(CN5CC[C@@H](CCl)C5)cc4C(F)(F)F)C3=O)c2)COC1 [Compound 101] ?
7.74

Subsequent entry: Cn1cnnc1CC1(c2cccc(N3Cc4c(cc(C5CCNC5)cc4C(F)(F)F)C3=O)c2)COC1.O=CO (racemic) [Compound 50, formate]
7.27

A = CN1CCN(Cc2cc3c(c(C(F)(F)F)c2)CN(c2cccc(C4(Cc5nncn5C)CC(F)(F)C4)c2)C3=O)C(=O)C1 [Compound 444]
B = Cn1cnnc1[C@H](F)C1(c2cccc(N3Cc4c(cc(CN5CC(C)(C)C5)cc4C(F)(F)F)C3=O)c2)COC1 [Compound 72]
pIC50 comparison. Which is larger, A or B ? Kindly state the label of the option you pick.
B
(B: 7.26, A: 6.77)
